Target: STAT6 (endogenous, HiBiT-tagged) in HeLa LgBiT clone 4.14 cells (Homo sapiens, UniProt P42226)
Construct: These cells express endogenous STAT6; host or cells: HeLa LgBiT clone 4.14
Sequence (P42226 whole entry): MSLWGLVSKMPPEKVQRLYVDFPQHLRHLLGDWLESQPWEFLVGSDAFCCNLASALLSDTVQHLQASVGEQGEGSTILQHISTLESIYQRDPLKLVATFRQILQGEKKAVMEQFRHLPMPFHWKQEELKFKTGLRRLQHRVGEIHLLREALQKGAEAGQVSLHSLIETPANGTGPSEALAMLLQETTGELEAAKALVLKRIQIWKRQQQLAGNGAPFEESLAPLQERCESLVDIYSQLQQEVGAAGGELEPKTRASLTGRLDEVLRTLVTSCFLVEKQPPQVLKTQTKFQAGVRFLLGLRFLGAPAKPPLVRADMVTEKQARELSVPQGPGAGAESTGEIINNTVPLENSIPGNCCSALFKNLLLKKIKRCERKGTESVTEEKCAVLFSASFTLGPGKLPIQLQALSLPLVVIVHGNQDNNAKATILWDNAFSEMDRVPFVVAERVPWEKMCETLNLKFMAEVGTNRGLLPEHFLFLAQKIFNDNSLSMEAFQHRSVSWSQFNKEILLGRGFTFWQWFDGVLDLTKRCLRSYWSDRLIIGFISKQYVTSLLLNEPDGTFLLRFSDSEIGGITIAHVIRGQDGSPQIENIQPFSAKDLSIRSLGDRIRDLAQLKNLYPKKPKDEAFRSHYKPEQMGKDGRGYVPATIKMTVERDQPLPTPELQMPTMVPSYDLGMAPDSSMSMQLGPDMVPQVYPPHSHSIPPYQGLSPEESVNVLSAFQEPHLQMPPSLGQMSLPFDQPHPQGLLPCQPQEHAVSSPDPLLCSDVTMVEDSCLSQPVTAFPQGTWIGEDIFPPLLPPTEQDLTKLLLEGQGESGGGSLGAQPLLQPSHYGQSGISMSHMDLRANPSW
Assay: STAT6 Degrader Assay (HiBiT based, HeLa LgBiT clone 4.14 cells, luminescence, DC50)
Format: cell-based
Conditions: DC50 provided for test compounds with >80% Emax, geometric mean, read-out: STAT6 degradation DC50
property_measured: DC50 (µM)

- compound: "COCc1nc2cc(-c3ccnc4c3cc(CN3CCC(c5ccc(C(=O)N6CCC(CN7CCC(N8CCN(c9ccc(NC%10CCC(=O)NC%10=O)cc9F)CC8)C(F)(F)C7)CC6)cc5)CC3)n4C)ccc2[nH]1 (stereo not drawn)"
  DC50, µM: 0.0206

[P] C[C@@H](c1cc2c(-c3ccc(N)nc3)ccnc2n1C)N1CCC(c2ccc(C(=O)N3CCn4nc(CN5CCN(c6ncc(NC7CCC(=O)NC7=O)cc6F)CC5)cc4C3)cc2)CC1 (stereo partly drawn)
[Q] Cn1c(CN2CCC(c3ccc(C(=O)N4CCC(CN5CCC(N6CCC(c7ccc(NC8CCC(=O)NC8=O)cc7F)CC6)C(F)(F)C5)CC4)cc3)CC2)cc2c(-c3ccc(N)nc3)ccnc21 (stereo not drawn)
Identify the entry with the smaller DC50: P or Q . // output: label of the selected item
P
(P: 0.0247 µM, Q: 0.133 µM)
